# subjectOfTest: human orexin-1 receptor (hOX1R) (Homo sapiens (Human))
# Sequence (O43613 whole entry): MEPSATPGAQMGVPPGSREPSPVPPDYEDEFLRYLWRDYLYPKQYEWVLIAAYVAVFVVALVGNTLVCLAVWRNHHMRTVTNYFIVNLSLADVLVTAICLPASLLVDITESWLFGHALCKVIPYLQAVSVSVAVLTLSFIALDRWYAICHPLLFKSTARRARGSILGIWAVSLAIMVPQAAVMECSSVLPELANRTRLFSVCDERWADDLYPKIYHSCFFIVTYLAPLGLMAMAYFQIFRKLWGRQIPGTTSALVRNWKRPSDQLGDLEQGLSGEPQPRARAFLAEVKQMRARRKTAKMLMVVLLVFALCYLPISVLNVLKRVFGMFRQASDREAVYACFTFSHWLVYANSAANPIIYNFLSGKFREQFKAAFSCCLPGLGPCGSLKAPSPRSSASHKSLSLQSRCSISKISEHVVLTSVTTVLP
# protocolNotes: Measurement of orexin antagonistic activity (intracellular Ca2+ fluorescence, FDSS), hOX1R
# Format: cell-based
# recordedConditions: IC50 Value OX1, CHO cells forcibly expressing hOX1R; ligand peptide (modified human orexin-A) 300 pM; maximum fluorescence intensity
# Description: Chinese hamster ovary (CHO) cells forcibly expressing the hOX1R and hOX2R were seeded into a 96 well Black clear bottom plate (Nunc) at 20,000 cells per well, which were cultured in Ham's F-12 medium containing 0.1 mM MEM non-essential amino acids, 0.5 mg/ml G418, 10% fetal bovine serum (all by Invitrogen) for 16 hours under the conditions of 37° C., 5% CO2. […]
quantityMeasured: pIC50
Answers are plain numbers, as −log10 of the molar value.

Cc1ccc(-n2nccn2)c(C(=O)N2CCCOC2Cn2cc(-c3ccc(F)cc3)cn2)c1 (single isomer, unassigned; (-))    9.10

Proceeding to the next compound to report its pIC50.
[in] May I ask what pIC50 has been recorded for Cc1ccc(-n2nccn2)c(C(=O)N2CCCOC2Cn2ccc(-c3ccc(F)cn3)n2)c1 (single isomer, unassigned; (-)) ?
[out] 9.15

* * *

Please provide measured IC50 for the entries that follow.
# subjectOfTest: human orexin-2 receptor (hOX2R) (Homo sapiens (Human), UniProt O43614)
# Sequence (O43614 whole entry): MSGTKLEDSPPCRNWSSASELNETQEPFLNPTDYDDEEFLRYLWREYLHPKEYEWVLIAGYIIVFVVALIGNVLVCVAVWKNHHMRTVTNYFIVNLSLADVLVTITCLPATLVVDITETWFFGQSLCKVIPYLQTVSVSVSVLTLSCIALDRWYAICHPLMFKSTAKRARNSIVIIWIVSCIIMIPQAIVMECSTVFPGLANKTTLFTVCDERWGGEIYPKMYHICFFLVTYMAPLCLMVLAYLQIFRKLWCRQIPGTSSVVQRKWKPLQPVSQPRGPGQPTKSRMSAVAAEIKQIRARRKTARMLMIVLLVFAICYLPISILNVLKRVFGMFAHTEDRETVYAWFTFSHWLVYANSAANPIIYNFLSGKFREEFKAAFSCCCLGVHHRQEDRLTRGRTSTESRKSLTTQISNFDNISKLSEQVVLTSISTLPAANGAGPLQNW
# protocolNotes: Measurement of orexin antagonistic activity (intracellular Ca2+ fluorescence, FDSS), hOX2R
# Assay type: cell-based
# recordedConditions: CHO cells forcibly expressing hOX2R; ligand peptide (modified human orexin-A) 3 nM; maximum fluorescence intensity; read-out: IC50 Value OX2
Numbers only, in nM.

Cc1ccc(-n2nccn2)c(C(=O)N2CCCOC2Cc2noc(-c3ccc(F)cn3)n2)c1 (single isomer, unassigned; (-))    6.9
Cc1ccc(-c2ncccn2)c(C(=O)N2CCCOC2Cc2cnn(-c3ccc(F)cn3)c2)c1 (racemic)    20.4

[in] May I ask what IC50 has been recorded for Cc1ccc(-c2ncccn2)c(C(=O)N2CCCOC2Cn2ccc(-c3ccc(F)cn3)n2)c1 (single isomer, unassigned; (-)) ?
[out] 3

* * *

Please provide measured IC50 for the entries that follow.
# subjectOfTest: human orexin-2 receptor (hOX2R) (Homo sapiens (Human))
# protocolNotes: Measurement of orexin antagonistic activity (intracellular Ca2+ fluorescence, FDSS), hOX2R
# Format: cell-based
# recordedConditions: CHO cells forcibly expressing hOX2R; ligand peptide (modified human orexin-A) 3 nM; maximum fluorescence intensity; read-out: IC50 Value OX2
Give bare numbers, in nM.

Cc1ccc(-n2nccn2)c(C(=O)N2CCCOC2Cc2noc(-c3ccc(F)cc3)n2)n1 (single isomer, unassigned; (-))    7.3

Quick batch: IC50 for everything below.
1. Cc1ccc(-c2ncccn2)c(C(=O)N2CCCOC2Cn2ccc(-c3ccc(F)cc3)n2)n1 (single isomer, unassigned; (-))
2. Cc1ccc(-n2nccn2)c(C(=O)N2CCCOC2Cn2ccc(-c3ccc(F)cc3)n2)n1 (single isomer, unassigned; (-))

[out]
4
3

* * *

# subjectOfTest: UniProt O43613
# protocolNotes: Measurement of orexin antagonistic activity (intracellular Ca2+ fluorescence, FDSS), hOX1R
# Type: cell-based
# recordedConditions: CHO cells forcibly expressing hOX1R; ligand peptide (modified human orexin-A) 300 pM; maximum fluorescence intensity; read-out: IC50 Value OX1
Please provide measured pIC50 for the entries that follow.
One number for each entry, as −log10 of the molar value.

Some solved cases for reference:
Cc1ccc(-n2nccn2)c(C(=O)N2C[C@H](C)O[C@H]2Cn2cc(-c3ccc(F)cn3)cn2)c1    7.07
O=C(c1cc(F)ccc1-c1ncccn1)N1CCCOC1Cc1cnn(-c2ccc(F)cn2)c1 (single isomer, unassigned; (-))    7.22
Cc1ccc(-n2nccn2)c(C(=O)N2CCOC2Cc2ccn(-c3ccc(F)cn3)n2)c1 (single isomer, unassigned; (-))    8.57
Cc1ccc(-c2ncccn2)c(C(=O)N2CCCOC2Cn2cc(-c3ccc(F)cc3)cn2)c1 (single isomer, unassigned; (-))    8.59
Cc1ccc(-c2ncccn2)c(C(=O)N2CCCOC2Cc2cnn(-c3ccc(F)cn3)c2)c1 (racemic)    7.76
Cc1ccc(-n2nccn2)c(C(=O)N2[C@H](C)CO[C@H]2Cn2cc(-c3ccc(F)cn3)cn2)c1    7.22
Cc1ccc(-c2ncccn2)c(C(=O)N2CCCOC2Cn2cc(-c3ccc(F)cc3)cn2)n1 (single isomer, unassigned; (-))    7.46
O=C(c1cc(F)ccc1-n1nccn1)N1CCCOC1Cn1ccc(-c2ccc(F)cn2)n1 (single isomer, unassigned; (-))    8.49

Quick batch: pIC50 for everything below.
1. Cc1ccc(-n2nccn2)c(C(=O)N2CCCOC2Cc2cnn(-c3ccc(F)cn3)c2)c1 (single isomer, unassigned; (-))
2. Cc1ccc(-n2nccn2)c(C(=O)N2[C@H](Cn3cc(-c4ccc(F)cn4)cn3)OC[C@@H]2C)c1
3. Cc1ccc(-n2nccn2)c(C(=O)N2CC(C)COC2Cn2cc(-c3ccc(F)cn3)cn2)c1 (single isomer, unassigned; (-)) [Example 40]
4. Cc1ccc(-n2nccn2)c(C(=O)N2CCOC2Cc2cnn(-c3ccc(F)cn3)c2)c1 (single isomer, unassigned; (-))

[out]
[8.47, 6.70, 8.08, 7.50]

[in] May I ask what pIC50 has been recorded for O=C(c1ccccc1-n1nccn1)N1CCOC1Cn1ccc(-c2ccc(F)cn2)n1 (racemic) ?
[out] 7.76

meta.source: patent US9266870B2
